systemUnderTest: Recombinant human Gal3 (rhGal3) (TrueBinding, #QC200361) (human, UniProt P17931 2-250)
protocolDescription: cell-based or functional assay
Quick rule for you: % inhibition of CD62L shedding at 80% or higher means 1, lower means 0.

Query block: Kindly determine if % inhibition of CD62L shedding recorded for 847.15F9 (antibody, V domains shown) VH: QVQMKQSGPGLVQPSQSLSITCTVSGFSLINYGVHWVRQSPGKGLEWLGVIWSGGSTDYNAAFISRLSISKDNSKSQVFFKMNSLQADDTAIYYCARIYYYGRGYAMDYWGQGTSVTVSS VL: QIVLSQSPAILSASPGEKVTMTCRASSSVTYMYWYQQKPGSSPQPWIYATSNLASGVPARFSGSGSGTSYSLTISRVEAEDAATYYCQQWSSNPLTFGAGTKLELK is above or exactly 80%.
Result block: 0
